Tested on: HOP-62
assay_protocol: NCI tumour cell line growth inhibition, 48 h
Active and inactive are the calls of the source. Cut-off read from the data, not from the text of the source: active = GI50 up to about 1.1 µM and inactive = higher.
Entries and their GI50 values follow.

Worked set:
INSERT INTO results (molecule, observation_type, measured) VALUES
  ('O=C1NC(N2CCCCC2)=N/C1=C\c1ccco1', 'GI50', '> 100 µM (inactive)'),
  ('NC(Cc1ncccn1)C(=O)O (stereo not given)', 'GI50', '> 100 µM (inactive)'),
  ('CCCCCCCCCC[C@@H](O)[C@H]1CC[C@H]([C@H]2CC[C@H]([C@H](O)CCCCCCCCCC[C@@H]3CC(CC(C)=O)C(=O)O3)O2)O1 (stereo not given in full)', 'GI50', '46.5 µM (inactive)'),
  ('CCN(CC)CCNc1ccc2nnn3c4ccc(OC(C)=O)cc4c(=O)c1c23', 'GI50', '1.98 µM (inactive)'),
  ('CC1(C)O[C@@H]2[C@@H](COC(C)(C)O[C@H]2C2SCCCS2)O1', 'GI50', '> 100 µM (inactive)');

Query: Hello, please tell me recorded GI50 for this one: c1ccc2c(c1)[C@@H]1O[C@@H]1[C@@]13O[C@@]21[C@H]1O[C@H]1c1ccccc13
Result: 15.5 µM (inactive)

Query: Output GI50 of Cc1cccc(NC2=NC(=O)C(CC(=O)Nc3ccc(Cl)cc3C)S2)c1 (stereo not given)
Result: > 100 µM (inactive)

Query: Report GI50, nothing else, for this molecule: CCN(CC)CCCNC(=O)Cc1ccccc1Nc1c(Cl)cccc1Cl
Result: 16 µM (inactive)

Query: Assign GI50 to the following record: C=C1C(=O)O[C@H]2C3C(=C(C)CC[C@@H]12)C(=O)[C@@H]1OC31C (stereo not given in full)
Result: 14.8 µM (inactive)

Query: Please report GI50 for the following molecule: COc1cc(C)c(O)c(C(=O)O)c1
Result: > 100 µM (inactive)
